TARGET_OR_TEST_SYSTEM: CDK17/Cyclin Y (Homo sapiens, UniProt Q00537)
Sequence (Q00537 whole entry): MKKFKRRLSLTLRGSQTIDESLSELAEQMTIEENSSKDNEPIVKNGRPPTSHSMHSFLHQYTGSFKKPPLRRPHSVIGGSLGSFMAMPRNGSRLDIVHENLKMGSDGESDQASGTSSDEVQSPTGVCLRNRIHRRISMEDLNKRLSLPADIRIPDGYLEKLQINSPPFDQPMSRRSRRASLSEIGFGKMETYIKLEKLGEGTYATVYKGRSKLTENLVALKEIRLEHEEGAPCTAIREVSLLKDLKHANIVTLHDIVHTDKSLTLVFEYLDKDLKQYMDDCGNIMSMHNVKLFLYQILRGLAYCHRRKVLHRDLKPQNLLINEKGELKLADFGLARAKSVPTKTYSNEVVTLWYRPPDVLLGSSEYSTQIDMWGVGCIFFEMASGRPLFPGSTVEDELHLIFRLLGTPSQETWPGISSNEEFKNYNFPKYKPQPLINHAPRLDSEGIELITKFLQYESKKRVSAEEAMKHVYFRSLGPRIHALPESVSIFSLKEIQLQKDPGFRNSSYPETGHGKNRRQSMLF
Sequence (Q8ND76 whole entry partner): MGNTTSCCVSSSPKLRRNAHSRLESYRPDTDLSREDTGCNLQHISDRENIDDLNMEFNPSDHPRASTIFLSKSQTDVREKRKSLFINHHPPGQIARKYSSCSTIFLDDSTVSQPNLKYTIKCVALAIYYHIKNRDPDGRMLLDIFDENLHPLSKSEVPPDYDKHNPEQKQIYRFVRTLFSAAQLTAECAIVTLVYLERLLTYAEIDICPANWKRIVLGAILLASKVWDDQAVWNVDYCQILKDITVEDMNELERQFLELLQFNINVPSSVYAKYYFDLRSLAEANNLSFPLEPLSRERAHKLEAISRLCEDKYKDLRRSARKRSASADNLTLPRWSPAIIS
TEST_DETAILS: NanoBRET live-cell target engagement, CDK17-NanoLuc/Cyclin Y in HEK-293
Type: binding
MEASUREMENT_PARAMETERS: CDK17/Y; experiment 2; read-out: IC50
MEASURED_ENDPOINT: IC50 (nM)
Your answer is read as nM, so omit the unit and give the number.

Guide cases for IC50, answers given:
COMPOUND: CN1CCN(Cc2ccc(NC(=O)Nc3ccc(Oc4ccnc(N)n4)cc3)cc2C(F)(F)F)CC1
TARGET_OR_TEST_SYSTEM: CDK17/Cyclin Y (Homo sapiens, UniProt Q00537)
IC50 (nM): 281
//
COMPOUND: CC(C)c1cnn2c(NCc3ccccc3-n3cccn3)nc(OC3CCCNC3)nc12 (stereo not shown)
TARGET_OR_TEST_SYSTEM: CDK17/Cyclin Y (Homo sapiens, UniProt Q00537)
IC50 (nM): 170

**Q:** Tell me reported IC50 for COc1ccc(F)cc1-c1cc(NC(=O)C2CCCNC2)ncc1Cl (stereo not shown) , tested with CDK17/Cyclin Y (Homo sapiens, UniProt Q00537).
**A:** 110

**Q:** Tell me reported IC50 for CN1CCN(c2ccc(Nc3ncc4cc(C#N)c(=O)n(C5CCCC5)c4n3)cc2)CC1 , tested with CDK17/Cyclin Y (Homo sapiens, UniProt Q00537).
**A:** 43

----------
TARGET_OR_TEST_SYSTEM: CDK9/Cyclin K (Homo sapiens)
Sequence (P50750 whole entry): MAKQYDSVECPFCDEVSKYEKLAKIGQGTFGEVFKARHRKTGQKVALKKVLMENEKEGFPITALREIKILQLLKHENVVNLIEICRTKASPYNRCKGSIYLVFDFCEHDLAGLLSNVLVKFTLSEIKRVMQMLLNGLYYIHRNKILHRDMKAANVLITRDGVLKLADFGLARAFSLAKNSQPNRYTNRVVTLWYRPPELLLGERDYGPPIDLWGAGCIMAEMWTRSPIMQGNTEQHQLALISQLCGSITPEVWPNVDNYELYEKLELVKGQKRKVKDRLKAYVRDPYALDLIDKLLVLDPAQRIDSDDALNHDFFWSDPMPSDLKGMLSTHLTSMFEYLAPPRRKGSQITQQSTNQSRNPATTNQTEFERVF
Sequence (O75909 whole entry partner): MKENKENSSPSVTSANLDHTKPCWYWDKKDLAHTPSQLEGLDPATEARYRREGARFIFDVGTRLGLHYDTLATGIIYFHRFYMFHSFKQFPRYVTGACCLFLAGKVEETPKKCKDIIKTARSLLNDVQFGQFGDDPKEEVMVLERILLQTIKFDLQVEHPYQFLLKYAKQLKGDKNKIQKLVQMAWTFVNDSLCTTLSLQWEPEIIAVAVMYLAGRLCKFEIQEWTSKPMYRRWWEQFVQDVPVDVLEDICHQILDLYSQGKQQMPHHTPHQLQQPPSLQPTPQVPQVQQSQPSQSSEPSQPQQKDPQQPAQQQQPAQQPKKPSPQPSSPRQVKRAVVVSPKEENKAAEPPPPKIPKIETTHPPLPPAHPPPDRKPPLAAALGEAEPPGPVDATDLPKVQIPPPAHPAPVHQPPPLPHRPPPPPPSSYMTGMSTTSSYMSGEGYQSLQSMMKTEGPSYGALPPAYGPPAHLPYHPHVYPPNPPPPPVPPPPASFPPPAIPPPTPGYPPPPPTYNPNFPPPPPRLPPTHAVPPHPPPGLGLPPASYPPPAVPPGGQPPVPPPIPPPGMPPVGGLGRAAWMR
TEST_DETAILS: NanoBRET live-cell target engagement, NanoLuc-CDK9/Cyclin K in HEK-293
Format: binding
MEASUREMENT_PARAMETERS: CDK9/K; experiment 2
Measured Inhibition at 10µM (%), listed per entry for reference.
Your answer is read as %, so omit the unit and give the number.

Guide cases for Inhibition at 10µM (%), answers given:
MOLECULE: CC(C)c1cnn2c(NCc3ccccc3-n3cccn3)nc(OC3CCCNC3)nc12 (stereo not shown)
UNIT_LABEL: %
Inhibition at 10µM (%): 42.0
//
MOLECULE: CCn1cnc2c(Nc3cccc(Cl)c3)nc(N[C@@H]3CCCC[C@@H]3N)nc21 [CGP74514A]
UNIT_LABEL: %
Inhibition at 10µM (%): 74.2
//
MOLECULE: CN1CCC(c2c(O)cc(O)c3c(=O)cc(-c4ccccc4Cl)oc23)C1CO (stereo not shown)
UNIT_LABEL: %
Inhibition at 10µM (%): 98.4

Now look at this entry.
**Q:** Tell me reported Inhibition at 10µM (%) for CC(C)c1c2cc(-c3ccnc(N[C@H]4CC[C@H](NC5CCOCC5)CC4)n3)ccc2nn1C , tested with CDK9/Cyclin K (Homo sapiens).
**A:** 97.9

----------
TARGET_OR_TEST_SYSTEM: CDK6/Cyclin D1 (Homo sapiens, UniProt Q00534)
Sequence (Q00534 whole entry): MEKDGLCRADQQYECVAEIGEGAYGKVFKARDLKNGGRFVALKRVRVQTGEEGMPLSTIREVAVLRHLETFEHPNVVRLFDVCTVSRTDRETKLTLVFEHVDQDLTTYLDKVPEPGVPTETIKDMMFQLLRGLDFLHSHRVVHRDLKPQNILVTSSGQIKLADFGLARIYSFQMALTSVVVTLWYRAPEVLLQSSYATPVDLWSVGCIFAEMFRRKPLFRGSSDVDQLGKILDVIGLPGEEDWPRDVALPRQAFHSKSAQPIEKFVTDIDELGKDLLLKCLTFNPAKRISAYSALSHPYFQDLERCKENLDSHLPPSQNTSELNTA
Sequence (P24385 whole entry partner): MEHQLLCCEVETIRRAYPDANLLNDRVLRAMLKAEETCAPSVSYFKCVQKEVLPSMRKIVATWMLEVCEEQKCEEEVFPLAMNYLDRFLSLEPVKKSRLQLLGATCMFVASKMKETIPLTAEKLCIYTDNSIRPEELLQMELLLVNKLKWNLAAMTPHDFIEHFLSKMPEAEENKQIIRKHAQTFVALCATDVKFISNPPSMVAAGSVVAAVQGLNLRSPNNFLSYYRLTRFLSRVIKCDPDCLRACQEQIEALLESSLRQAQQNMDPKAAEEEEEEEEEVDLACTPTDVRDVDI
TEST_DETAILS: NanoBRET live-cell target engagement, NanoLuc-CDK6/Cyclin D1 in HEK-293
Format: binding
MEASUREMENT_PARAMETERS: 10µM; average of experiments
Measured CDK6/D1 Inhibition at 10µM (%), listed per entry for reference.
Your answer is read as %, so omit the unit and give the number.

MOLECULE: O=C1NC(=NCc2cccs2)S/C1=C\c1ccc2ncccc2c1 [RO-3306]
TARGET_OR_TEST_SYSTEM: CDK6/Cyclin D1 (Homo sapiens, UniProt Q00534)
UNIT_LABEL: %
CDK6/D1 Inhibition at 10µM (%): 15.6
--
MOLECULE: CN(C)C/C=C/C(=O)Nc1ccc(C(=O)Nc2cccc(Nc3ncc(Cl)c(-c4c[nH]c5ccccc45)n3)c2)cc1 [THZ1]
TARGET_OR_TEST_SYSTEM: CDK6/Cyclin D1 (Homo sapiens, UniProt Q00534)
UNIT_LABEL: %
CDK6/D1 Inhibition at 10µM (%): 73.8
--
MOLECULE: Cc1c(Br)c(Br)c2c3c1nc(N1CCNCC1)n3CCC2.Cl [SEL 120-34A]
TARGET_OR_TEST_SYSTEM: CDK6/Cyclin D1 (Homo sapiens, UniProt Q00534)
UNIT_LABEL: %
CDK6/D1 Inhibition at 10µM (%): 31.6

Now look at this entry.
**Q:** For O=C1NCCc2[nH]c(-c3ccncc3)cc21 [PHA-767491] , what is its reported CDK6/D1 Inhibition at 10µM (%)?
**A:** 19.5
